biological target: mTAS1R2-WT/mTAS1R3-WT (Mus musculus, UniProt Q925D8+Q925I4); experiment: Calcium mobilisation assay, HEK293T-Gα16gust44 cells, mouse sweet taste receptor WT; conditions: mTAS1R2-WT + mTAS1R3-WT; "-": no activation
Sequence (Q925I4 20-843): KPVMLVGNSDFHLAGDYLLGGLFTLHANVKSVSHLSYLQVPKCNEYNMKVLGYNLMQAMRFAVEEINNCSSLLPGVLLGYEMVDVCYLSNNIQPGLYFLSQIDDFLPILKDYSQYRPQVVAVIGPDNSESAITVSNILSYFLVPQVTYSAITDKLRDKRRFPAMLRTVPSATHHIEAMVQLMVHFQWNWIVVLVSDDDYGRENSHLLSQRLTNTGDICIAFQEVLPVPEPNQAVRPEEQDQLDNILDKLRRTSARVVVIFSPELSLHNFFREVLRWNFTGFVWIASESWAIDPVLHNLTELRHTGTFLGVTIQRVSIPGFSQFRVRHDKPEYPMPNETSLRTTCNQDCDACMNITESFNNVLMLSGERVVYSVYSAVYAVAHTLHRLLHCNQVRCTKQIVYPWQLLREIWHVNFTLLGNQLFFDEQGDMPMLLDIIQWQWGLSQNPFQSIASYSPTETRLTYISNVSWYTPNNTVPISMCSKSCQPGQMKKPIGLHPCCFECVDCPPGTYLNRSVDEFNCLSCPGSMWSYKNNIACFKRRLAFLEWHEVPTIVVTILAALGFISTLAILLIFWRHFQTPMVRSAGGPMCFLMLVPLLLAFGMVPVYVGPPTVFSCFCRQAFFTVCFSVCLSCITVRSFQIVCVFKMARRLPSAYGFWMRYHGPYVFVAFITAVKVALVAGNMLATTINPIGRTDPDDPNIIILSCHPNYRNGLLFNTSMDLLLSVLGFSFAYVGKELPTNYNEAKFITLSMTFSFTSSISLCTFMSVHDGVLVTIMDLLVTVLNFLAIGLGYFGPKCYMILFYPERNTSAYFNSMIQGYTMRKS
Sequence (Q925D8 21-858): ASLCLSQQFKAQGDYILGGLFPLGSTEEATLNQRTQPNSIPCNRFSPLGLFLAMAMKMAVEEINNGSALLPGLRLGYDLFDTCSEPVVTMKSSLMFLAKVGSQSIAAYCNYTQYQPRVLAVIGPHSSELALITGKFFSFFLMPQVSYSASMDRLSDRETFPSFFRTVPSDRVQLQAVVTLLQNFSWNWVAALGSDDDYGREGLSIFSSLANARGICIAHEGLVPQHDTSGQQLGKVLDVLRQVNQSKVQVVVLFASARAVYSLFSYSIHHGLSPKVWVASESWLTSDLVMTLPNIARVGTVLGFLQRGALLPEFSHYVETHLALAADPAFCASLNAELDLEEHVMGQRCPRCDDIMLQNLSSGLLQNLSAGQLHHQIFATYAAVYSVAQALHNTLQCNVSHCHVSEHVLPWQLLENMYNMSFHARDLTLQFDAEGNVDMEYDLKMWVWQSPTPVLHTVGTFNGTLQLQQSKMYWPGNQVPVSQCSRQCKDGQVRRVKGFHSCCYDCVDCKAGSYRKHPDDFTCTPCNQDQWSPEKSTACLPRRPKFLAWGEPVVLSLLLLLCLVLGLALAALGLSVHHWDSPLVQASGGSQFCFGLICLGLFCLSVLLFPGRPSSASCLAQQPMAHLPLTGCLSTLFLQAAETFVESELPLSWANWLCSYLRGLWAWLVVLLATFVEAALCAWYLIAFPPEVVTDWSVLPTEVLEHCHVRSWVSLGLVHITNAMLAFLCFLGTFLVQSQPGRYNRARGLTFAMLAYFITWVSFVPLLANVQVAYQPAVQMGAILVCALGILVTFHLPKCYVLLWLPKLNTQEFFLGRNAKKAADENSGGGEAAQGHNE
pEC50: −log10 of the molar value.
measure: pEC50

Consider the following illustrative entries.
molecule	pEC50
OC[C@H]1O[C@H](O[C@]2(CCl)O[C@H](CCl)[C@@H](O)[C@@H]2O)[C@H](O)[C@@H](O)[C@H]1Cl	3.11
C[C@H](CC[C@@H](O[C@@H]1O[C@H](CO[C@@H]2O[C@H](CO)[C@@H](O)[C@H](O)[C@H]2O)[C@@H](O)[C@H](O)[C@H]1O[C@@H]1O[C@H](CO)[C@@H](O)[C@H](O)[C@H]1O)C(C)(C)O)[C@H]1CC[C@@]2(C)[C@@H]3CC=C4[C@@H](CC[C@H](O[C@@H]5O[C@H](CO[C@@H]6O[C@H](CO)[C@@H](O)[C@H](O)[C@H]6O)[C@@H](O)[C@H](O)[C@H]5O)C4(C)C)[C@]3(C)[C@H](O)C[C@]12C [Mogroside V, mogroside V]	3.88
C=C1C[C@@]23CC[C@H]4[C@@](C)(CCC[C@@]4(C)C(=O)O[C@@H]4O[C@H](CO)[C@@H](O)[C@H](O[C@@H]5O[C@H](CO)[C@@H](O)[C@H](O)[C@H]5O)[C@H]4O[C@@H]4O[C@H](CO)[C@@H](O)[C@H](O)[C@H]4O)[C@@H]2CC[C@]1(O[C@@H]1O[C@H](CO)[C@@H](O)[C@H](O[C@@H]2O[C@H](CO)[C@@H](O)[C@H](O)[C@H]2O)[C@H]1O[C@@H]1O[C@H](CO)[C@@H](O)[C@H](O)[C@H]1O)C3 [Rebaudioside M, rebaudioside M]	4.36

1 = O=C1NS(=O)(=O)c2ccccc21
2 = CC1=CC(=O)NS(=O)(=O)O1
Please indicate which has the smaller reported pEC50: 1 , or 2 . Which one? Tell me its label.
1

* * *

Target: human TAS1R2-WT/TAS1R3-F514L (Homo sapiens, UniProt Q7RTX0+Q8TE23, F514L)
Construct: expressed in transfected cells; host or cells: HEK293T stably expressing Gα16gust44
Sequence (Q8TE23 20-839): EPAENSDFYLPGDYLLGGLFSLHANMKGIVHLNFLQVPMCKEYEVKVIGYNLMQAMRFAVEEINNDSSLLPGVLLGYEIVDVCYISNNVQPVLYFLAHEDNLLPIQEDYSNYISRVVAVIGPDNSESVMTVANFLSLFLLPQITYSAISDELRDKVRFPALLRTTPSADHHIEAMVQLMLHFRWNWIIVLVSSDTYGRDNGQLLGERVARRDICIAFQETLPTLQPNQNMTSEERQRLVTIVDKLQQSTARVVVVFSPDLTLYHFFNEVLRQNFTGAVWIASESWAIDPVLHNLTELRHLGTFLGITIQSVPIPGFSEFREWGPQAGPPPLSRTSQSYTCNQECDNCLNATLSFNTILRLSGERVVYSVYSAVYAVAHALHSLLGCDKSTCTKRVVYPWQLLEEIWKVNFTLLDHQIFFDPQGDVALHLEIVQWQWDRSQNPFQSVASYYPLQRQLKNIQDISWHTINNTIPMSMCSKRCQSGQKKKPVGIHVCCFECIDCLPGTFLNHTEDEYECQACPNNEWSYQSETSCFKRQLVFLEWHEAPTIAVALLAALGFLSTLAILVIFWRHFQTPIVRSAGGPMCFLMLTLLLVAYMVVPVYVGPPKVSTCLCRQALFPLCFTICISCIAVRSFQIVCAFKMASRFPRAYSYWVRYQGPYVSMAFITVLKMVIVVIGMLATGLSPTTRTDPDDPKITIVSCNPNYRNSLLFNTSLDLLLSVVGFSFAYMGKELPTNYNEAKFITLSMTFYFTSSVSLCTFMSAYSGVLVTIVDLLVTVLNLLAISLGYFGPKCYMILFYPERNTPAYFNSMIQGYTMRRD
Sequence (Q7RTX0 21-852 F514L): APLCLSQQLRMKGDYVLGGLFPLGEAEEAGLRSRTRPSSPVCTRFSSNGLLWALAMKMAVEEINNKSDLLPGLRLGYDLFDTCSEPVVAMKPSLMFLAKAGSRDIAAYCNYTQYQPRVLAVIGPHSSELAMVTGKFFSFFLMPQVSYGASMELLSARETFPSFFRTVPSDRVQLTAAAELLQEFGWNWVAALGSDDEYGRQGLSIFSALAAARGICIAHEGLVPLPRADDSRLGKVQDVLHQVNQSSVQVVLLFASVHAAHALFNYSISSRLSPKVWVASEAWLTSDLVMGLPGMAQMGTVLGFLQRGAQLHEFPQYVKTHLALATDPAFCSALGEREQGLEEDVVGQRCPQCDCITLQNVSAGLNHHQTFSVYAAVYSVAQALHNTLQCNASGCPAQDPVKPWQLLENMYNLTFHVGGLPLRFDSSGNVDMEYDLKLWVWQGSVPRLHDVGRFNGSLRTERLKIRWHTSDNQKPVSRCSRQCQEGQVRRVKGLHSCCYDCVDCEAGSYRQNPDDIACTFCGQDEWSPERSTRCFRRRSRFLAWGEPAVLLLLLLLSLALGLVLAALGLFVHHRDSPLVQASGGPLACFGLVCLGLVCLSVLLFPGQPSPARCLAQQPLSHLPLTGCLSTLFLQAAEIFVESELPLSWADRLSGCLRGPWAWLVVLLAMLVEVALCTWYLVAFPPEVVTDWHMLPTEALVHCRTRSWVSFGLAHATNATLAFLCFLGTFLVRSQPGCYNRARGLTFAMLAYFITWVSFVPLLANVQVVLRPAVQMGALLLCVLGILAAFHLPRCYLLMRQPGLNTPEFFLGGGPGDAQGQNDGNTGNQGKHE
Assay: Calcium mobilisation assay, TAS1R2-WT with TAS1R3 variant F514L
Format: cell-based
measure: R1 = Variant EC50/WT EC50

compound	system.name	value.measured
C=C1C[C@@]23CC[C@H]4[C@@](C)(CCC[C@@]4(C)C(=O)O[C@@H]4O[C@H](CO)[C@@H](O)[C@H](O[C@@H]5O[C@H](CO)[C@@H](O)[C@H](O)[C@H]5O)[C@H]4O[C@@H]4O[C@H](CO)[C@@H](O)[C@H](O)[C@H]4O)[C@@H]2CC[C@]1(O[C@@H]1O[C@H](CO)[C@@H](O)[C@H](O[C@@H]2O[C@H](CO)[C@@H](O)[C@H](O)[C@H]2O)[C@H]1O[C@@H]1O[C@H](CO)[C@@H](O)[C@H](O)[C@H]1O)C3 [Rebaudioside M, rebaudioside M]	human TAS1R2-WT/TAS1R3-F514L (Homo sapiens, UniProt Q7RTX0+Q8TE23, F514L)	0.8

I = CC1=CC(=O)NS(=O)(=O)O1
II = C=C(C)[C@@H]1CC=C(/C=N/O)CC1
Between the two listed entries I and II , which has its R1 = Variant EC50/WT EC50 at the higher number? Which one? Tell me its label.
II
(II: 1.0, I: 0.7)

Data provenance: paper PMC11945486
